Target: Ras farnesyl transferase (Homo sapiens, UniProt P49354+P49356)
Experiment: Ras farnesyl transferase inhibiting activity (filter-binding, tritium-farnesylpyrophosphate, Ras-CVLS substrate)
Conditions: recombinant Ras farnesyl transferase, 30 minutes at 37° C., read-out: Ftase IC50
observed.property: IC50 (nM)
The reply should contain only the number, in nM.

Below are worked cases with known answers.
> print(dat)
                                   molecule   val
1  N#Cc1ccc(Cn2cncc2CN2C(=O)CN(Cc3cccc4ccccc34)C2=O)cc1    30
2  CCCN1C(=O)N(CCCc2cncn2Cc2ccc(C#N)cc2)C(=O)C1(C)c1cccc2ccccc12 (stereo not shown)    40
3  CC1(c2cccc3ccccc23)C(=O)N(CCCn2ccnc2)C(=O)N1Cc1ccccc1 (stereo not shown)  2500

Consider the additional molecule presented here.
Ask | Give Ras farnesyl transferase (Homo sapiens, UniProt P49354+P49356) IC50 for CC1(c2cccc3ccccc23)C(=O)N(CCCn2ccnc2)C(=O)N1Cc1ccc(Oc2ccccc2)cc1 (stereo not shown)
Reply | 750
